assay overview: Tmax in C57BL/6J mouse at 5 mg/kg, po by LC-MS/MS analysis
Assay type: ADME, organism-based
measurement conditions: in vivo
quantity measured: Tmax

The recorded Tmax for entry `C#CC1(NC(=O)C(=O)c2c(C)c(C(=O)Nc3ccc(F)c(C#N)c3)n(C)c2C)COC1` equals 1 h

---

experimental target: Multidrug and toxin extrusion protein 1 (Homo sapiens, UniProt Q96FL8)
Sequence (Q96FL8 whole entry): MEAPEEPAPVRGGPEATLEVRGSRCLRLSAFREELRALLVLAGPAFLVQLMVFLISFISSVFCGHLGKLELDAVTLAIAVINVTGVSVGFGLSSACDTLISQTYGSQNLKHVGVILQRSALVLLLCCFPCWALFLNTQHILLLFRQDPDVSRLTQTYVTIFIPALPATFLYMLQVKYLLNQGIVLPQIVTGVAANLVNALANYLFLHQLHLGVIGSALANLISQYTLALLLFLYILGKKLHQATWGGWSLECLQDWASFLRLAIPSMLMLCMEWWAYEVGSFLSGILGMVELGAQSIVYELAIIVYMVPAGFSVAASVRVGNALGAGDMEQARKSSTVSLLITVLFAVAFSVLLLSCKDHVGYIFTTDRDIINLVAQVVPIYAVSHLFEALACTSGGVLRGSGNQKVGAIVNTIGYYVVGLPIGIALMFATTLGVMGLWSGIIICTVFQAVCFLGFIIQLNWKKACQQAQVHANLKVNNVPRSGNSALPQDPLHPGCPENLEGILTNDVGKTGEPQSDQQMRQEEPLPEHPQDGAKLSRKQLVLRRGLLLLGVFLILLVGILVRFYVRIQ
assay overview: Inhibition of MATE1 (unknown origin) transfected in HEK293 cells
pIC50: −log10 of the molar value.
quantity measured: pIC50

The recorded pIC50 for entry `C#CC1(NC(=O)C(=O)c2c(C)c(C(=O)Nc3ccc(F)c(C#N)c3)n(C)c2C)COC1` equals < 4.93

---

assay overview: Half life in C57BL/6J mouse at 5 mg/kg, po by LC-MS/MS analysis
Type: ADME, organism-based
measurement conditions: in vivo
quantity measured: half-life (h)
Give the value in h but do not write h after it.

The recorded half-life for entry `C#CC1(NC(=O)C(=O)c2c(C)c(C(=O)Nc3ccc(F)c(C#N)c3)n(C)c2C)COC1` equals 1.55

---

assay overview: Half life in C57BL/6J mouse at 1 mg/kg, iv by LC-MS/MS analysis
Format: ADME, organism-based
measurement conditions: in vivo
quantity measured: half-life (h)
Give the value in h but do not write h after it.

The recorded half-life for entry `C#CC1(NC(=O)C(=O)c2c(C)c(C(=O)Nc3ccc(F)c(C#N)c3)n(C)c2C)COC1` equals 1.37

---

assay overview: Metabolic stability in human plasma assessed as half life
Assay type: ADME, cell-free
Reported half-life values are given for each entry in this list.

INSERT INTO measurements (smi, test_result) VALUES
  ('C#CC1(N(COP(=O)([O-])[O-])C(=O)C(=O)c2c(C)c(C(=O)Nc3ccc(F)c(C#N)c3)n(C)c2C)COC1.[Na+].[Na+]', '> 4 h');

Field: next molecule
The recorded half-life for entry `C#CC1(NC(=O)C(=O)c2c(C)c(C(=O)Nc3ccc(F)c(C#N)c3)n(C)c2C)COC1` equals > 4 h

---

assay overview: Volume of distribution at steady state in Sprague-Dawley rat at 1 mg/kg, iv by LC-MS/MS analysis
Format: ADME, organism-based
measurement conditions: in vivo, read-out: Vdss
quantity measured: Vd (L/kg)
Give the value in L/kg but do not write L/kg after it.

The recorded Vd for entry `C#CC1(NC(=O)C(=O)c2c(C)c(C(=O)Nc3ccc(F)c(C#N)c3)n(C)c2C)COC1` equals 0.5

---

assay overview: Metabolic stability in dog liver microsomes assessed as half life at 1 uM incubated upto 60 mins in presence of NADPH
Type: ADME, Canis lupus familiaris, Microsome
quantity measured: half-life at 1 µM

INSERT INTO results (smi, quantity_measured, test_result) VALUES
  ('C#CC1(NC(=O)C(=O)c2c(C)c(C(=O)Nc3ccc(F)c(C#N)c3)n(C)c2C)COC1', 'half-life at 1 µM', '> 1 h');

Field: next compound
The recorded half-life at 1 µM for entry `C#CC1(N(COP(=O)([O-])[O-])C(=O)C(=O)c2c(C)c(C(=O)Nc3ccc(F)c(C#N)c3)n(C)c2C)COC1.[Na+].[Na+]` equals > 1 h

---

assay overview: Oral bioavailability in C57BL/6J mouse at 5 mg/kg by LC-MS/MS analysis
Assay type: ADME, organism-based
measurement conditions: in vivo
quantity measured: bioavailability (%)
Give the value in % but do not write % after it.

The recorded bioavailability for entry `C#CC1(NC(=O)C(=O)c2c(C)c(C(=O)Nc3ccc(F)c(C#N)c3)n(C)c2C)COC1` equals 115

---

assay overview: Tmax in Beagle dog at 5 mg/kg, po by LC-MS/MS analysis
Type: ADME, organism-based, Canis lupus familiaris
measurement conditions: in vivo
quantity measured: Tmax
Quick note: unit goes after the number.

The recorded Tmax for entry `C#CC1(NC(=O)C(=O)c2c(C)c(C(=O)Nc3ccc(F)c(C#N)c3)n(C)c2C)COC1` equals 2.17 h

---

Sequence of the target: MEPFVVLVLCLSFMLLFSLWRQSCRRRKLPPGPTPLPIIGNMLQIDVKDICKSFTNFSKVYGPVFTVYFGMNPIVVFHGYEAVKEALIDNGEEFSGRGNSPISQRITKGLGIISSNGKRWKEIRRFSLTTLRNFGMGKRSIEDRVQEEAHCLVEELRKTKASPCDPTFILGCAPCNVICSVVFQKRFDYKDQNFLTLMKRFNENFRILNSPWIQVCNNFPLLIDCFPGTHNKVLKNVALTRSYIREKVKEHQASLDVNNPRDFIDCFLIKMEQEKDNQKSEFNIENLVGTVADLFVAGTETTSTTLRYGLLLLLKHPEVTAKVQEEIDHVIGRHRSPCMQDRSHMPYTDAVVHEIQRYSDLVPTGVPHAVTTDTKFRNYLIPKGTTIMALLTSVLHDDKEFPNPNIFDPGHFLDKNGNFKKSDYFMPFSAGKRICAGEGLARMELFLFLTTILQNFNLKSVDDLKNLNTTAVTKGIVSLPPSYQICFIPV
quantity measured: IC50 (µM)
Give the value in µM but do not write µM after it.

The recorded IC50 for entry `C#CC1(NC(=O)C(=O)c2c(C)c(C(=O)Nc3ccc(F)c(C#N)c3)n(C)c2C)COC1` equals 48.6

---

experimental target: Organic anion transporter 3 (Homo sapiens, UniProt Q8TCC7)
Sequence (Q8TCC7 whole entry): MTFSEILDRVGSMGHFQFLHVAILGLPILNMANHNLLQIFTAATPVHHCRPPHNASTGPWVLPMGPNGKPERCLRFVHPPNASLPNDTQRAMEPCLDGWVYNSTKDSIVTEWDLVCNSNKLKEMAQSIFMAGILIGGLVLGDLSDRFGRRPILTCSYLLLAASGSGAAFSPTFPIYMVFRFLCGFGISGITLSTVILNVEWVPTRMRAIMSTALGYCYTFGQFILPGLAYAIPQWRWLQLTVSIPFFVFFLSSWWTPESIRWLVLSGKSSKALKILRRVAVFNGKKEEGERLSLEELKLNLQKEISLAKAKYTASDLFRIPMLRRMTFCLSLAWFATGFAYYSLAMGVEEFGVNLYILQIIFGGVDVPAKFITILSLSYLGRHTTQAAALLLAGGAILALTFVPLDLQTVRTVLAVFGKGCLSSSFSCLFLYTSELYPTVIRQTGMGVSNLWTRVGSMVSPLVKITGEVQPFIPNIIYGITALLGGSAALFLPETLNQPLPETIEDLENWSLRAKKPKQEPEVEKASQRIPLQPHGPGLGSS
assay overview: Inhibition of OAT3 (unknown origin) transfected in HEK293 cells
pIC50: −log10 of the molar value.
quantity measured: pIC50

The recorded pIC50 for entry `C#CC1(NC(=O)C(=O)c2c(C)c(C(=O)Nc3ccc(F)c(C#N)c3)n(C)c2C)COC1` equals < 4.93

---

experimental target: Cytochrome P450 2D6 (Homo sapiens)
Sequence (P10635 whole entry): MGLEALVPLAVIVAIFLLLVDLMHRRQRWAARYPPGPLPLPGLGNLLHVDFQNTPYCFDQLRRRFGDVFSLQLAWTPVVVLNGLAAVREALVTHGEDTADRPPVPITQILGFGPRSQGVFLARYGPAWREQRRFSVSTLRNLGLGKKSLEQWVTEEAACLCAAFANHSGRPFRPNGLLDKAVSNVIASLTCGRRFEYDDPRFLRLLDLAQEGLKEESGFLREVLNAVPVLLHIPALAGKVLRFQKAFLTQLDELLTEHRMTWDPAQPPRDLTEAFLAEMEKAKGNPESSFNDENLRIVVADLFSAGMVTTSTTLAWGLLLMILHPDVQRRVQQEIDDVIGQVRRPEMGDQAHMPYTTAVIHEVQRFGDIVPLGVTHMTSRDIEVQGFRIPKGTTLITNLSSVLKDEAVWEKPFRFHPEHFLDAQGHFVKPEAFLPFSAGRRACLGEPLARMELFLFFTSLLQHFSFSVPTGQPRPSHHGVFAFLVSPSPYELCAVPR
quantity measured: IC50

Let me check: `C#CC1(NC(=O)C(=O)c2c(C)c(C(=O)Nc3ccc(F)c(C#N)c3)n(C)c2C)COC1` , system Cytochrome P450 2D6 (Homo sapiens), measured IC50 is > 50 µM

---

Reported half-life at 1 µM values are given for each entry in this list.
assay overview: Metabolic stability in human liver microsomes assessed as half life at 1 uM incubated upto 60 mins in presence of NADPH
Format: ADME, Microsome

Consider the following illustrative entries.
INSERT INTO measurements (smi, test_result) VALUES
  ('C#CC1(N(COP(=O)([O-])[O-])C(=O)C(=O)c2c(C)c(C(=O)Nc3ccc(F)c(C#N)c3)n(C)c2C)COC1.[Na+].[Na+]', '> 1 h'),
  ('C#CCNC(=O)C(=O)c1c(C)c(C(=O)Nc2ccc(F)c(F)c2)n(C)c1C', '> 1 h');

The recorded half-life at 1 µM for entry `C#CC1(NC(=O)C(=O)c2c(C)c(C(=O)Nc3ccc(F)c(C#N)c3)n(C)c2C)COC1` equals > 1 h

---

assay overview: Ratio of drug concentration in blood to plasma in Cynomolgous monkey at 5 uM incubated for 60 mins
Format: ADME, cell-free, Macaca fascicularis
measurement conditions: cynomolgus monkey
quantity measured: blood plasma ratio at 1 h, 5 µM

The recorded blood plasma ratio at 1 h, 5 µM for entry `C#CC1(NC(=O)C(=O)c2c(C)c(C(=O)Nc3ccc(F)c(C#N)c3)n(C)c2C)COC1` equals 0.83

---

experimental target: UniProt:O15245
Sequence (O15245 whole entry): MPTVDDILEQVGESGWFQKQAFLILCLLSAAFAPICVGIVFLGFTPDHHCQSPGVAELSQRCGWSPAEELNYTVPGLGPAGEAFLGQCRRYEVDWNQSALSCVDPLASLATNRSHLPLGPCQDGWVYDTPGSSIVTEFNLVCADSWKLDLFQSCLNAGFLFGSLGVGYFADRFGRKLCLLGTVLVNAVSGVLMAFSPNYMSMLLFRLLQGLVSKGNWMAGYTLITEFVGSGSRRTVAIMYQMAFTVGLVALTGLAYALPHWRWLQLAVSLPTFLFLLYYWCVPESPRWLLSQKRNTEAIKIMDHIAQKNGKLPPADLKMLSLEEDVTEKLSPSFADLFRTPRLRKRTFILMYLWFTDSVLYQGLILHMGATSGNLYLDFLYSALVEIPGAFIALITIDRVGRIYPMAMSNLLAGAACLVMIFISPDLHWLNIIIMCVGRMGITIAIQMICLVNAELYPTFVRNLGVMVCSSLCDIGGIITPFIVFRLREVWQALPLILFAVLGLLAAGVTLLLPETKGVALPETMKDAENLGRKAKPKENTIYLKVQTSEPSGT
assay overview: Inhibition of OCT1 (unknown origin) transfected in HEK293 cells
quantity measured: IC50

The recorded IC50 for entry `C#CC1(NC(=O)C(=O)c2c(C)c(C(=O)Nc3ccc(F)c(C#N)c3)n(C)c2C)COC1` equals > 11.8 µM

---

experimental target: UGT1A1 (Homo sapiens)
Sequence (P22309 whole entry): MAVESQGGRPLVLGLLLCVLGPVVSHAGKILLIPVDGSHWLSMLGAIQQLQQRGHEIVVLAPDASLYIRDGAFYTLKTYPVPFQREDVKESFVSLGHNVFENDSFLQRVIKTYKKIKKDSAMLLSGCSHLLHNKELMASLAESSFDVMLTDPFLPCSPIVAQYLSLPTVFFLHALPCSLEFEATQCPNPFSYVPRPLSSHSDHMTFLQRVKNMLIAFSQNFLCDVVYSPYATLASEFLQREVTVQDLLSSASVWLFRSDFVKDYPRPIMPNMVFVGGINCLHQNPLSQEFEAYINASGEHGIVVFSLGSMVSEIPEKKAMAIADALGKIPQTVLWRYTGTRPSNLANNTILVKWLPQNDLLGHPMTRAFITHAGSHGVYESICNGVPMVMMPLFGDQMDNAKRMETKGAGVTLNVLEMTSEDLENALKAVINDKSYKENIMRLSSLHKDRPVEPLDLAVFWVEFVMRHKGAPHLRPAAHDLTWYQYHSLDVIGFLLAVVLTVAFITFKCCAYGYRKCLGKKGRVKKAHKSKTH
assay overview: Inhibition of recombinant human UGT1A1 at 10 uM in presence of UDPGA relative to control
quantity measured: inhibition at 10 µM (%)
Give the value in % but do not write % after it.

INSERT INTO results (smi, quantity_measured, test_result) VALUES
  ('C#CC1(N(COP(=O)([O-])[O-])C(=O)C(=O)c2c(C)c(C(=O)Nc3ccc(F)c(C#N)c3)n(C)c2C)COC1.[Na+].[Na+]', 'inhibition at 10 µM', 11.2);

Field: next compound
The recorded inhibition at 10 µM for entry `C#CC1(NC(=O)C(=O)c2c(C)c(C(=O)Nc3ccc(F)c(C#N)c3)n(C)c2C)COC1` equals 7.3

---

experimental target: UniProt Q9NPD5
Sequence (Q9NPD5 whole entry): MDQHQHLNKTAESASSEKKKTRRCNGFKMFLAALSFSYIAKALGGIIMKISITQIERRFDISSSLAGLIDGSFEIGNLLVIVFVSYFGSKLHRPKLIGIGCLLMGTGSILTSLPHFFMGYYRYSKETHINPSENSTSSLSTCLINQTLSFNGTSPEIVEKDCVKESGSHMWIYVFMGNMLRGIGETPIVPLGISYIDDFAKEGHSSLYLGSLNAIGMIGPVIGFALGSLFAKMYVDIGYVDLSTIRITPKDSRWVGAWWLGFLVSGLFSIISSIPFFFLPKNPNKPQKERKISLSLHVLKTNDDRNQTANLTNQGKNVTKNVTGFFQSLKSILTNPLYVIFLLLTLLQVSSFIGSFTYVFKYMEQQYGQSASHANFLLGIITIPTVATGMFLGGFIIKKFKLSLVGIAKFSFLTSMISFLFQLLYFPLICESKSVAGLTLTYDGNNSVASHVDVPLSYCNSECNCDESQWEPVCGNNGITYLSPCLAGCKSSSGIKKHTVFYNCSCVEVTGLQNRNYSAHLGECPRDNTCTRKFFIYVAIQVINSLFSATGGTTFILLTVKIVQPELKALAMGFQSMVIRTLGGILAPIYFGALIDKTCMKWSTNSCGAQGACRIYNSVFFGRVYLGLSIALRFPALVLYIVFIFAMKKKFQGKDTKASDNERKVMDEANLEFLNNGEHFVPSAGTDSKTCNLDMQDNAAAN
assay overview: Inhibition of OATP1B3 (unknown origin) transfected in HEK293 cells
quantity measured: IC50

INSERT INTO assay_data (smi, test_result) VALUES
  ('C#CC1(NC(=O)C(=O)c2c(C)c(C(=O)Nc3ccc(F)c(C#N)c3)n(C)c2C)COC1', '> 11.8 µM');

The recorded IC50 for entry `C#CC1(N(COP(=O)([O-])[O-])C(=O)C(=O)c2c(C)c(C(=O)Nc3ccc(F)c(C#N)c3)n(C)c2C)COC1.[Na+].[Na+]` equals ~50 µM

The measured values listed here are drawn from ChEMBL document CHEMBL6092224.
